FYI, the data here is from the nanobody polyreactivity screen of Harvey et al. (2022).

- test protocol: yeast display, Sf9 membrane polyspecificity reagent, FACS + sequencing; frameworks hold sequencing errors
quantity measured: polyreactivity (PSR sort gate)

Guide cases for polyreactivity (PSR sort gate), answers given:
macromolecule sequence: QVQLVESGGGLVQAGGSIRLSCAASGRTFDPYSRGWYRQAPGKERELVAAISRSGGSTYYADSVKGRFTISRDNAKNTVYLQLNSLKPEDTAVYYFDADASRYYYEYDYWGQGTQVNVSS
quantity measured: polyreactivity (PSR sort gate)
result: high polyreactivity
--
macromolecule sequence: QGQLVESGGGLVQAGGSLRFSCAASGSTFVWYAMGWYRQAPGKERELVAGINRSGGSRYYADSVKGRFTILRDNAKNTVYLQMNSLKPEDTAVYYCAARGKRFRNSRIAYDYWGKGTQVTVSS
quantity measured: polyreactivity (PSR sort gate)
result: high polyreactivity
--
macromolecule sequence: QVQLVESVGGLVQAGGSLRLSCAASGVIFYFYTMGWSRQAPGKERELVAGITWSGDSTYYADSVKGRFTISRDNAKNTVYLQMNSLTPEDTAVYYCAAGFDFGTRVSKGYDYWGHGTQVTVSS
quantity measured: polyreactivity (PSR sort gate)
result: low polyreactivity
--
macromolecule sequence: QVQLVESGGGLVQAGGSLRLSCAASGLIFGNNAMGWYRQAPGKERELVAGIDWSGGSTYYADSVKGRFTISRDNAKNTVDLQMNSLKPEDTAVYYCNAALYVSGHYPNDYWGQGTQVTVSS
quantity measured: polyreactivity (PSR sort gate)
result: low polyreactivity
--
macromolecule sequence: QVQHVESGGGLVQAGGSLRLSCAASGRIFWYYAMGWYRQAPGKERELVAASTRGGITTYADSVKGRYTISRDNAKNTVYLQMNSLKPEDTAVYYCNAVRWYGRMDYWGQGTQVTVSS
quantity measured: polyreactivity (PSR sort gate)
result: low polyreactivity

Hi, could you look up polyreactivity (PSR sort gate) for each item in my list?
1. QVQLVESGGGLVQAGGSLRLSCAASGIYYNAMGWYRQAPGKERELVAAITTGDRTNYADSVKGRFTISRDNAKNTVYLQMNCLKPEDTAVYYCNAVVERLSSTARDFAYDYWGQGTQVTVSS
2. QVQLVESGGGLVQAGCSLRLSSAASGIIFSHNAMGWYRQAPGKERELVDDIDWSGGSTYYADSVKGRFTISRDNAKNTVYLQMNSLKPEDTAVYYCAAEYRDYVPVNDTGDYWGQGTQVTVSS
3. QVQIVESGGGLVQAGGSLRLSCAASGITFGPYAMGWYRQAPWKERELVAAISYSGGNTYYADSVKGRFTISRDNAKNTVYLQMNSLKPEDTAVDYCARVQSLKYNYWGQGTQVTVSS
4. QVQLVESGGGLVQAGGSLRLSCAASGFTFGAYAMGWSRQAPGKERELVASISWSGGSTYYADSVKGRFTISRDNAKNTVYLQMNSLKPEDTAVYDCNKDFVYPDDDGLFDYWGQGTQVTVSS
5. QVQLVESGGGLVQAGGSLRLSCAASGRTFKRYAMGWYRQAPGKERELVAVITSGGSTYYADSVKGRFTISRDNAKNTVYLQMNSLKPEDTAVYYCAARYGVRIWHDALYGYWGQGTQVTVSS

Return:
1. low polyreactivity
2. low polyreactivity
3. high polyreactivity
4. low polyreactivity
5. high polyreactivity

Enquiry: Record request: polyreactivity (PSR sort gate) value, item QVQLVESGGGLVQAGGSLRLSCAASGFIFNHYAMGWYRQAPGKEREFVAAISWSGGSTYYADSVKGRFTISRDNAKNTVYLQMNSLKPEDTAVYYCAASYNCLWHGDYDYWGQGTQVTVSS
Return: low polyreactivity
